Cited source for all entries: PubChem BioAssay AID1347165

System tested: Lysine-specific demethylase 5B (Homo sapiens) (UniProt Q9UGL1)
Sequence (Q9UGL1 whole entry, looked up): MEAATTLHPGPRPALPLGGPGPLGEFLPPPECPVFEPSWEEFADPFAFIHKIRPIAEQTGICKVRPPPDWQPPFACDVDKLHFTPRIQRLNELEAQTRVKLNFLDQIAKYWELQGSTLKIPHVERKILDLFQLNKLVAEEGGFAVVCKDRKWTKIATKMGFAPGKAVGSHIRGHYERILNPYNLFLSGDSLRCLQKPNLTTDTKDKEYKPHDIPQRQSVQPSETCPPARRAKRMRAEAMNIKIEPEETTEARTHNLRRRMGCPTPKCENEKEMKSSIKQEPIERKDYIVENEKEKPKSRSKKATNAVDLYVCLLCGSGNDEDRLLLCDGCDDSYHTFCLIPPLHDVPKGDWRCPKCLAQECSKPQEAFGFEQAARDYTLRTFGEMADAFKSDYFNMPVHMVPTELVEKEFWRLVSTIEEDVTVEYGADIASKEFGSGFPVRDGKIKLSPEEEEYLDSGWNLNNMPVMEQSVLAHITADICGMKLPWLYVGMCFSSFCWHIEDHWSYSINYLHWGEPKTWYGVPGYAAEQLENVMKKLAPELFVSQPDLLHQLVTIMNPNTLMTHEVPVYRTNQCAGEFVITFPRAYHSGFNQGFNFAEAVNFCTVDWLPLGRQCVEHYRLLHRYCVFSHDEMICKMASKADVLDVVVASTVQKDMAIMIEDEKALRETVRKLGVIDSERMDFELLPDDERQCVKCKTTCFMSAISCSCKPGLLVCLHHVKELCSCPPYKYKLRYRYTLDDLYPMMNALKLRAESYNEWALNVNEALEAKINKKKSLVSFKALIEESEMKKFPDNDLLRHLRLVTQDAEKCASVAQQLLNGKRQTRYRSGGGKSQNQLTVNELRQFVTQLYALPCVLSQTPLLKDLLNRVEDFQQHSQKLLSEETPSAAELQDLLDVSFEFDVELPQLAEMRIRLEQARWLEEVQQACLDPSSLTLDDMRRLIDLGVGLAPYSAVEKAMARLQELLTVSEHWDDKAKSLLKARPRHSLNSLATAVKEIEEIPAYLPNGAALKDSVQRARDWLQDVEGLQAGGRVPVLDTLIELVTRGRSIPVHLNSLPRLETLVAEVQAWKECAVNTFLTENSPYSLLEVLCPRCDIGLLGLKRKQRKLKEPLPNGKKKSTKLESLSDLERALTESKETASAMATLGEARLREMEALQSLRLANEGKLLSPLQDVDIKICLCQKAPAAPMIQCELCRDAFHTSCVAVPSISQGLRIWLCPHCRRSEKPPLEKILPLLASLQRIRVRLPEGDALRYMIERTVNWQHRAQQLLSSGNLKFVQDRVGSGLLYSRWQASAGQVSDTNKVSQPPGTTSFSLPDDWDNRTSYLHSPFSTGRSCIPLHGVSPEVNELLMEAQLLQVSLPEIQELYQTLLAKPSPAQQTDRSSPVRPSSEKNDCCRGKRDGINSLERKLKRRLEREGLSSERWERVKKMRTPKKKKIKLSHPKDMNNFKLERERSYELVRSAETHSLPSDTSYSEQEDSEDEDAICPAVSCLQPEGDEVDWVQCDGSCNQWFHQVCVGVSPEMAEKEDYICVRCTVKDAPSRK
Assay info: Primary screen for KDM5B Histone Demethylases FDH-coupled qHTS; further: nearly all actives have a fitted effect of over 70% in size
Condition: FDH-coupled NADH fluorescence (FDH is formaldehyde dehydrogenase); series mostly up to 57.7 µM
Hit rate of the full screen: of about 220,000 compounds, about 5,700 (2.6%) were called active. Another 18% or so got no clear call; they are omitted. The call rests on the fitted dose curve; in most records, active means well fitted inhibition curve with a large enough effect; inconclusive means small, poorly fitted or top-dose-only effect; inactive means no such curve, though single readings can be large or run the other way. The entries come from a sample that favours actives as a whole.
Field 'call' accepts 1.0 (active), 0.0 (inactive)

# count of solved cases: 5
CC(Sc1nc(CN2CCOCC2)nc2ccccc12)C(=O)NC1CCCCCC1 (stereo unspecified)    0.0
O=c1ncn(Cc2ccccc2)c2ccc(-c3ccoc3)nc12    1.0
CC(C)Oc1ccc(/C(O)=C2\C(=O)C(=O)N(c3nccs3)C2c2cccc(Br)c2)cc1 (stereo unspecified)    0.0
CC(Sc1nc(N)cc(N)n1)C(=O)c1ccc(Cl)cc1 (stereo unspecified)    0.0
Cc1[nH]c2ccccc2c1C=O    0.0

// switching to the query compound
Which outcome did this test record for the compound CCC(C(=O)Nc1ccc(F)cc1F)n1nc(-c2ccc(C)cc2)ccc1=O (stereo unspecified) ? 0.0
